- Read-out: glucuronosyltransferase (UGT1A1), UGT1A1 (gene 54658)
- Procedure Summary: CLD_UGT1A1_24hr: CellzDirect (CLD) Gene Expression Assay for glucuronosyltransferase (UGT1A1) at 24 hours (AID 2283696)
Records with an inconclusive call do not appear. Activity calls are given as the source filed them. Rule for the calls: active = hit-call score of the fitted dose curve at least 0.9, where 1 is the maximum; inconclusive = response in the unintended direction; inactive = score below 0.9.
Thanks in advance; please answer with one of these: YES for active, NO for inactive

- CC(C)Oc1cc(-n2nc(C(C)(C)C)oc2=O)c(Cl)cc1Cl: NO
- CCCCNC(=O)OCC#CI: NO
- N#Cc1cc(Br)c(O)c(Br)c1: NO
- COP(=S)(OC)Oc1nc(Cl)c(Cl)cc1Cl: NO
- Cc1c(F)c(F)c(COC(=O)C2C(/C=C(\Cl)C(F)(F)F)C2(C)C)c(F)c1F (stereo not given): NO

Answer briefly: the call reported for CCCCOC(=O)c1ccccc1C(=O)OCCCC in this assay.
NO

Answer briefly: the call reported for CC(Oc1ccc(Cl)cc1Cl)C(=O)O (stereo not given) in this assay.
NO

Answer briefly: the call reported for Cc1ccc(-c2c(Cl)nc(C#N)n2S(=O)(=O)N(C)C)cc1 in this assay.
NO

Answer briefly: the call reported for Cc1cc(Cl)ccc1OCC(=O)O in this assay.
NO

Answer briefly: the call reported for COc1nc(C)nc(NC(=O)NS(=O)(=O)c2ccccc2Cl)n1 in this assay.
NO

Answer briefly: the call reported for CS/C(C)=N/OC(=O)N(C)SN(C)C(=O)O/N=C(\C)SC in this assay.
NO

Answer briefly: the call reported for CCOC(=O)C(Cl)Cc1cc(-n2nc(C)n(C(F)F)c2=O)c(F)cc1Cl (stereo not given) in this assay.
NO

Answer briefly: the call reported for CC(C)C1(C)N=C(c2nc3ccccc3cc2C(=O)O)NC1=O (stereo not given) in this assay.
NO

Answer briefly: the call reported for CC1=C(C(=O)Nc2ccccc2)SCCO1 in this assay.
NO

Answer briefly: the call reported for CNC(=O)ON=CC(C)(C)SC in this assay.
NO

Answer briefly: the call reported for C=CC1(C)OC(=O)N(c2cc(Cl)cc(Cl)c2)C1=O (stereo not given) in this assay.
NO

Answer briefly: the call reported for CCOc1cc(Oc2ccc(C(F)(F)F)cc2Cl)ccc1[N+](=O)[O-] in this assay.
NO

Answer briefly: the call reported for CCNc1nc(Cl)nc(NCC)n1 in this assay.
NO

Answer briefly: the call reported for CCNc1nc(Cl)nc(NC(C)C)n1 in this assay.
YES

Answer briefly: the call reported for CCOP(=S)(OCC)SCn1c(=O)oc2cc(Cl)ccc21 in this assay.
NO

Answer briefly: the call reported for Fc1ccc(Oc2ccnc3cc(Cl)cc(Cl)c23)cc1 in this assay.
NO

Answer briefly: the call reported for COC(=O)C(C)Oc1ccc(Oc2ccc(Cl)cc2Cl)cc1 (stereo not given) in this assay.
NO

Answer briefly: the call reported for COc1cnc(OC)n2nc(NS(=O)(=O)c3c(OCC(F)F)cccc3C(F)(F)F)nc12 in this assay.
NO

Answer briefly: the call reported for CO/C=C(/C(=O)OC)c1ccccc1Oc1cc(Oc2ccccc2C#N)ncn1 in this assay.
NO

Answer briefly: the call reported for CC1COC(Cn2cncn2)(c2ccc(Oc3ccc(Cl)cc3)cc2Cl)O1 (stereo not given) in this assay.
NO
